Collected Cmax values appear next to each entry.
assay: Pharmacokinetic (PK) analysis in rats; type: in vivo, Sprague Dawley (SD) rats; settings: Sprague-Dawley, rat, po; SD rats, single intragastric administration, 5 mg/kg, plasma; read-out: Plasma Concentration Cmax
Report the value in ng/mL with no unit label.

COCCNc1cc(NC(=O)N2CCCc3cc(CN(C)C(=O)[C@H]4CCCN4C(C)=O)c(C=O)nc32)ncc1C#N [Example 10] :: 1960
CO[C@H]1CCN(Cc2cc3c(nc2C=O)N(C(=O)Nc2cc(NC4COC4)c(C#N)cn2)CCC3)C1=O [Example 83] :: 2330
COCCSc1cc(NC(=O)N2CCCc3cc(CN(C)C(=O)[C@H]4CCCO4)c(C=O)nc32)ncc1C#N [Example 16] :: 3140
COCC(=O)N(C)Cc1cc2c(nc1C=O)N(C(=O)Nc1cc(N3CC[C@@H](OC)C3)c(C#N)cn1)CCC2 [Example 107] :: 1940
COCCNc1cc(NC(=O)N2CCCc3cc(CN(C)C(=O)C4CCOCC4)c(C=O)nc32)ncc1C#N [Example 98] :: 2690
COCCNc1cc(NC(=O)N2CCCc3cc(CN(C)C(=O)[C@H]4CCCO4)c(C=O)nc32)ncc1C#N [Example 1] :: 2070
COCCNc1cc(NC(=O)N2CCCc3cc(CN4CCC(OC)C4=O)c(C=O)nc32)ncc1C#N (centres unmarked) [Example 44] :: 3010
CO[C@@H]1CCN(Cc2cc3c(nc2C=O)N(C(=O)Nc2cc(N[C@@H]4CCOC4)c(C#N)cn2)CCC3)C1=O [Example 87] :: 3360
COC[C@@H](C)Nc1cc(NC(=O)N2CCCc3cc(CN4CC[C@@H](OC)C4=O)c(C=O)nc32)ncc1C#N [Example 91] :: 2790
CN(Cc1cc2c(nc1C=O)N(C(=O)Nc1cc(N[C@H]3CCOC3)c(C#N)cn1)CCC2)C(=O)[C@H]1CCCO1 [Example 94] :: 3750

Which Cmax value belongs to COCCNc1cc(NC(=O)N2CCCc3cc(CN4CC[C@@H](OC)C4=O)c(C=O)nc32)ncc1C#N [Example 45] ? 3760

Now consider COC[C@@H](C)Nc1cc(NC(=O)N2CCCc3cc(CN(C)C(=O)[C@H]4CCCO4)c(C=O)nc32)ncc1C#N [Example 93] . 2860

* * *

experiment: Pharmacokinetic (PK) analysis in rats; assay type: in vivo, Sprague Dawley (SD) rats; conditions: Sprague-Dawley, rat, po; SD rats, single intragastric administration, 5 mg/kg, plasma; read-out: Half-Time t1/2 (converted)
Collected half-life values appear next to each entry.
Report the value in min with no unit label.

CO[C@@H]1CCN(c2cc(NC(=O)N3CCCc4cc(CN5CC[C@H](OC)C5=O)c(C=O)nc43)ncc2C#N)C1 [Example 54] :: 60
COCCNc1cc(NC(=O)N2CCCc3cc(CN(C)C(=O)C4CCOCC4)c(C=O)nc32)ncc1C#N [Example 98] :: 54
COCCNc1cc(NC(=O)N2CCCc3cc(CN(C)C(=O)[C@@H]4CCCO4)c(C=O)nc32)ncc1C#N [Example 2] :: 72
CO[C@H]1CCN(Cc2cc3c(nc2C=O)N(C(=O)Nc2cc(NC4COC4)c(C#N)cn2)CCC3)C1=O [Example 83] :: 54

Which half-life value belongs to COC[C@@H](C)Nc1cc(NC(=O)N2CCCc3cc(CN4CC[C@@H](OC)C4=O)c(C=O)nc32)ncc1C#N [Example 91] ? 54

* * *

Collected half-life values appear next to each entry.
Test: Pharmacokinetic (PK) analysis in rats
Format: in vivo, Sprague Dawley (SD) rats
Conditions: Sprague-Dawley, rat, po; SD rats, single intragastric administration, 5 mg/kg, plasma; read-out: Half-Time t1/2 (converted)
Experimental: 6. Pharmacokinetic (PK) Analysis in Rats Mode of administration: a single intragastric administration. Formulation: 0.5% CMC and 1% Tween 80, ultrasonic dissolution. Sampling points: 0.5, 1, 2, 4, 6, 8 and 24 hours after administration. 1. […] The blood was centrifuged at room temperature at the speed of 1000˜3000×g for 5˜20 minutes to isolate the plasma, which was then stored at −80° C. […] 100 μL of treated solution were taken, and the concentration of the test compound was analyzed by LC/MS/MS. […]
Report the value in h with no unit label.

// below: answered compounds
CO[C@H]1CCN(Cc2cc3c(nc2C=O)N(C(=O)Nc2cc(N[C@@H]4COC[C@H]4OC)c(C#N)cn2)CCC3)C1=O :: 1
COC[C@@H](C)Nc1cc(NC(=O)N2CCCc3cc(CN(C)C(=O)[C@H]4CCCO4)c(C=O)nc32)ncc1C#N :: 0.9
COCCNc1cc(NC(=O)N2CCCc3cc(CN4CCC(OC)C4=O)c(C=O)nc32)ncc1C#N (stereo not shown) :: 1

Which half-life value belongs to COCCNc1cc(NC(=O)N2CCCc3cc(CN(C)C(=O)[C@H]4CCCN4C)c(C=O)nc32)ncc1C#N ? 1.3

* * *

assay: Pharmacokinetic (PK) analysis in rats; format: in vivo, Sprague Dawley (SD) rats; conditions: Sprague-Dawley, rat, po; SD rats, single intragastric administration, 5 mg/kg, plasma; read-out: Plasma Concentration Cmax
Collected Cmax values appear next to each entry.
Report the value in µg/mL with no unit label.

// below: answered compounds
COC[C@@H](C)Oc1cc(NC(=O)N2CCCc3cc(CN4CC[C@H](OC)C4=O)c(C=O)nc32)ncc1C#N [Example 50] :: 2.35
COCCNc1cc(NC(=O)N2CCCc3cc(CN(C)C(=O)C4CCOC4)c(C=O)nc32)ncc1C#N (stereo not shown) [Example 5] :: 3.57
CO[C@H]1CCN(Cc2cc3c(nc2C=O)N(C(=O)Nc2cc(N[C@@H]4COC[C@H]4OC)c(C#N)cn2)CCC3)C1=O [Example 86] :: 2.76
COC[C@@H](C)Nc1cc(NC(=O)N2CCCc3cc(CN4CC[C@H](OC)C4=O)c(C=O)nc32)ncc1C#N [Example 89] :: 1.99
COCCNc1cc(NC(=O)N2CCCc3cc(CN(C)C(=O)[C@@H]4CCCO4)c(C=O)nc32)ncc1C#N [Example 2] :: 2.2
COCCNc1cc(NC(=O)N2CCCc3cc(CN4CC[C@H](OC)C4=O)c(C=O)nc32)ncc1C#N [Example 46] :: 3.29

Next, consider the following compound.
Which Cmax value belongs to COC[C@@H](C)Oc1cc(NC(=O)N2CCCc3cc(CN(C)C(=O)[C@H]4CCCO4)c(C=O)nc32)ncc1C#N [Example 15] ? 2.69

* * *

experiment: Pharmacokinetic (PK) analysis in rats; format: in vivo, Sprague Dawley (SD) rats; details: Sprague-Dawley, rat, po; SD rats, single intragastric administration, 5 mg/kg, plasma; read-out: Mean Residence Time MRT
VALUE KIND: MRT (h)
Report the value in h with no unit label.

// below: answered compounds
COC[C@@H](C)Oc1cc(NC(=O)N2CCCc3cc(CN(C)C(=O)[C@H]4CCCO4)c(C=O)nc32)ncc1C#N [Example 15] :: 3
COCCNc1cc(NC(=O)N2CCCc3cc(CN(C)C(=O)[C@H]4CCCN4C)c(C=O)nc32)ncc1C#N [Example 9] :: 3
COCCNc1cc(NC(=O)N2CCCc3cc(CN(C)C(=O)[C@H]4CCCO4)c(C=O)nc32)ncc1C#N [Example 1] :: 3.1

Next, consider the following compound.
Which MRT value belongs to COCCNc1cc(NC(=O)N2CCCc3cc(CN(C)C(=O)C4COC4)c(C=O)nc32)ncc1C#N [Example 3] ? 3.3

* * *

assay: Pharmacokinetic (PK) analysis in rats; assay type: in vivo, Sprague Dawley (SD) rats; conditions: Sprague-Dawley, rat, po; SD rats, single intragastric administration, 5 mg/kg, plasma; read-out: Half-Time t1/2 (converted)
Collected half-life values appear next to each entry.
Write your answer as a measured quantity: the number, then the unit.

// below: answered molecules
COC[C@@H](C)Nc1cc(NC(=O)N2CCCc3cc(CN4CC[C@H](OC)C4=O)c(C=O)nc32)ncc1C#N [Example 89] :: 1 h
CN(Cc1cc2c(nc1C=O)N(C(=O)Nc1cc(N[C@H]3CCOC3)c(C#N)cn1)CCC2)C(=O)[C@H]1CCCO1 [Example 94] :: 0.8 h
COCCNc1cc(NC(=O)N2CCCc3cc(CN4CC[C@H](OC)C4=O)c(C=O)nc32)ncc1C#N [Example 46] :: 1 h
CO[C@H]1CCN(Cc2cc3c(nc2C=O)N(C(=O)Nc2cc(N[C@H]4CCOC4)c(C#N)cn2)CCC3)C1=O [Example 84] :: 0.9 h
COCCNc1cc(NC(=O)N2CCCc3cc(CN4CC[C@@H](OC)C4=O)c(C=O)nc32)ncc1C#N [Example 45] :: 1.1 h
COCCNc1cc(NC(=O)N2CCCc3cc(CN(C)C(=O)C4CCOC4)c(C=O)nc32)ncc1C#N (stereo not drawn) [Example 5] :: 1.2 h

Which half-life value belongs to COC[C@@H](C)Oc1cc(NC(=O)N2CCCc3cc(CN(C)C(=O)[C@H]4CCCO4)c(C=O)nc32)ncc1C#N [Example 15] ? 1.5 h
